Cited source for all entries: PubChem BioAssay (NCI)

# System: SK-MEL-28 melanoma
# ASSAY NAME: NCI tumour cell line growth inhibition, 48 h
Here the recorded TGI is given for each entry.
PROPERTY MEASURED: TGI

1) COc1cc(-c2nn(-c3ccc(NC(=O)c4cc(Cl)cc(Cl)c4)cc3)cc2-c2ccncc2)ccc1Cl
> 100 µM
2) C=C1c2nc3ccccc3n2C=C(c2ccc(OC)cc2)N1c1ccc(OCCN2CCOCC2)cc1
> 100 µM
3) OC1c2ccccc2C(O)C2OC12 (stereo not given)
> 100 µM
4) COc1ccc2c(c1)OCCC1=C2SCC2(C)CCN=C12 (stereo not given)
> 100 µM
5) C=CCCC(=O)N1C=CC(=O)[C@H](O)[C@@H]1/C=C/c1ccccc1
> 32.5 µM
6) CC(C)c1cccc(C(C)C)c1OS(=O)(=O)NC(=O)OC(C(F)(F)F)C(F)(F)F
> 100 µM
7) CCOC(=O)/C(C#N)=C/Nc1ccc(-c2nc3ccccc3[nH]2)cc1
54.1 µM
8) ClCC#CCSc1ncnc2c1ncn2CC#CCCl
3.14 µM
9) C=CCC(SC)C1=C(C)C(=O)c2ccccc21 (stereo not given)
> 10 µM
10) O=C1N[C@@H](COc2ccc(C=Nc3ccc(CCc4ccc(N=Cc5ccc(OC[C@@H]6COC(=O)N6)cc5)cc4)cc3)cc2)CO1
> 100 µM

* * *

# Tested on: BT-549 breast
# ASSAY NAME: NCI tumour cell line growth inhibition, 48 h
PROPERTY MEASURED: GI50

1. CC1(C)[C@@H](OC(N)=O)C=C[C@]2(C=O)[C@H]3CC[C@]4(C)[C@@H](c5ccc(=O)oc5)[C@@H](Cl)C[C@]4(O)C3=CC[C@@H]12
0.00491 µM
2. COc1ccc2[nH]c(O)c(/C=c3/cc4c(c(-c5ccc(F)cc5)n3)=Nc3ccccc3-4)c2c1
1.8 µM
3. Nc1c(C(=O)Nc2cccc(Br)c2)sc2nc3c(cc12)C(O)CCC3 (stereo not drawn)
0.972 µM
4. Cc1nnc(-c2ccc(-c3nc4ccccc4o3)cc2)o1
65.5 µM
5. Cc1ccc2c(c1)C(=O)c1c-2n(CCCN=[N+]=[N-])c(=O)c2cc([N+](=O)[O-])ccc12
> 100 µM
6. c1ccc2nc(OCCN3CC3)ccc2c1
20.7 µM
7. O=C(NCCCCOCC#Cc1ccccc1C#CCS(=O)(=O)c1ccccc1)c1cc2ccccc2[nH]1
8.38 µM
8. N#Cc1cccc(OCc2ccccc2COc2cccc(C#N)c2)c1
36.7 µM
9. C=CCCC(=O)N1C=CC(=O)[C@H](O)[C@@H]1/C=C/c1ccccc1
11 µM
10. CCOC(=O)Cc1csc(NC(=O)COC(=O)c2ccc(OC)cc2)n1
24.7 µM
11. CC(=O)C1(O)Cc2c(O)c3c(c(O)c2C(OC2CC(N)C(O)C(C)O2)C1)C(=O)c1ccccc1C3=O (stereo not drawn)
0.0603 µM
12. Oc1ccc(Cl)cc1-c1cc(-c2ccc(F)cc2)n[nH]1
3.59 µM
13. O=C(CCl)Nc1cc(O)c2c(c1)C(=O)c1cccc(O)c1C2=O
1.24 µM

* * *

Here the recorded GI50 is given for each entry.
# Test system: 786-0 renal
# ASSAY NAME: NCI tumour cell line growth inhibition, 48 h
PROPERTY MEASURED: GI50

1. O=c1c2c3c(sc2n2c(-c4ccc(Br)cc4)nnc2n1Cc1ccccc1)CCCC3
3.96 µM
2. C#CCN(Cc1nc2cc(C(F)(F)F)ccc2nc1-c1ccccc1)c1ccc(F)c(F)c1
> 100 µM
3. OC(COc1cccc2ccccc12)CN1CCN(c2ccccc2Cl)CC1 (configuration not stated)
15.6 µM
4. N#Cc1cccc(OCc2ccccc2COc2cccc(C#N)c2)c1
12.3 µM
5. Oc1c(CN2CCOCC2)cc(COCc2ccccc2)c2cccnc12
2.67 µM
6. COc1ccc(NC(=O)/C=C(C)/C=C/C=C(C)\C=C\C2=C(C)CCCC2(C)C)cc1
90.3 µM
7. Cc1nnc(-c2ccc(-c3nc4ccccc4o3)cc2)o1
> 100 µM
